Test system: human skin keratinocytes and/or fibroblasts
Assay: in vitro ROS probe assay: protection of live skin cells against ROS induced by visible light and infrared radiation
Assay type: cell-based
Set-up: key: Strong: “strong” refers to a percent protection greater than 70%; “Medium” refers to a percent protection less than or equal to 70% but greater than or equal to 40%; “Low” refers to a percent protection less than 40%; Negative: The term “negative” is used when there is no protection
Conditions: ROS induced by visible light (100 J/cm^2); cells pre-treated 24 hours at 10 μg/ml (0.001%), antioxidant removed before exposure

{"columns": ["MOLECULE", "STUDY SYSTEM", "Visible light protection %"],
 "data": [
  ["CC1=NCC[C@@H](C(=O)O)N1 [Ronacare Ectoin]", "human skin keratinocytes and/or fibroblasts", "Negative"],
  ["O=C1N[C@H](C(=O)O)CS1 [Pro-cysteine]", "human skin keratinocytes and/or fibroblasts", "Negative"]
]}
